Biological target: T1, CD5L (CD5 antigen-like) (Homo sapiens, UniProt O43866 O43866:20-347)
T1 sequence: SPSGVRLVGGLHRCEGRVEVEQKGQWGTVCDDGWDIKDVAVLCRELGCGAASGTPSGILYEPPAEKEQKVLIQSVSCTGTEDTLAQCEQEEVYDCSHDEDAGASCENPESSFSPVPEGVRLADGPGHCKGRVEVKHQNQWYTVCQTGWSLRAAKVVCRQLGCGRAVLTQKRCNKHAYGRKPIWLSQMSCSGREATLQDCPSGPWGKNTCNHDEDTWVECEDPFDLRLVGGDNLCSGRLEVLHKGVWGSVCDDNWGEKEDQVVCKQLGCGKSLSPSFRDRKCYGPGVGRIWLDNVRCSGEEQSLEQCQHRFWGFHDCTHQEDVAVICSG
Assay: MST; 50 mM Tris-HCl pH 7.8, 150 mM NaCl, 10 mM MgCl2, 0.05% Tween-20; 2 nM Cy5-S76.T
Conditions: tags: His-tagged, Sino Biological 10791-H08H; fluorescently labeled for MST except with Cy5-S76.T; label: Cy5 (MST); hairpin
outcome_measure: pKd
Remember the convention: pKd equals -log10 of concentration in molar.

Prompt: Indicate the recorded pKd value for this binder: AGGUUGCAGCGUUCGACAGGAGGCUCACAACAG (ssRNA, 2'-F pyrimidines) [S76.T]
Response: 8.00

Ref: patent US20230167453
